# study.system: DRB1*0301 (DR3w17) (Homo sapiens, UniProt P01903+P01911, A100K/A102G/A103R/A169T/F55Y/I96L/K41T/L162R/M171V/P40S/Q125H/Q178H/Q39Y/R42S/S66N/T106N/T262R/W38E/Y61H)
# Construct: used as sources of human HLA class II molecules; endogenous in cells; host or cells: MAT (EBV-transformed homozygous B cell line)
# protocol.description: Class II peptide-binding assay, DR3 (pH 4.5);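 note: unlabeled peptide competing with a radiolabeled probe peptide for binding to affinity-purified HLA-DR3, IC50 regarded as an approximation of Kd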
# conditions: read-out: In IC50 Format DR3 nM; Table VIII; values in parentheses read as lower bounds
observable: IC50

IN: # IC50 lookup, item C[C@H](NC(=O)CNC(=O)CNC(=O)[C@@H](N)CCC(N)=O)C(=O)N[C@@H](C)C(=O)N1CCC[C@H]1C(=O)N[C@@H](CCC(N)=O)C(=O)N1CCC[C@H]1C(=O)N[C@@H](Cc1c[nH]cn1)C(=O)N1CCC[C@H]1C(=O)N1CCC[C@H]1C(=O)N1CCC[C@H]1C(=O)N[C@@H](C)C(=O)N[C@@H](Cc1ccccc1)C(=O)N[C@@H](CO)C(=O)O [Peptide 39.0382]
OUT: > 120 µM

* * *

# study.system: DRB1*0101 (DR1) (Homo sapiens, UniProt P01903+P01911, A100R/D57E/F55L/F60I/F76Y/I96L/L162R/M171V/P40L/Q125E/R42F/V115G/Y59C)
# Construct: used as sources of human HLA class II molecules; endogenous in cells; host or cells: LG2 (EBV-transformed homozygous B cell line)
# protocol.description: Class II peptide-binding assay, DR1;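 note: competition assay: unlabeled test peptides inhibit binding of a radiolabeled probe peptide to purified DR, with half-maximal inhibition taken as an approximate dissociation constant Kd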
# conditions: read-out: In IC50 Format DR1; Table VIII
Ends that are not written are not given here.
Each record is given true (1) if its reported IC50 is strictly below 200 nM. Records at or above 200 nM are given false (0).

Past entries and their recorded results:
In [3]: df
Out[3]:
                        primary_sequence        cat
0  VHHANENIFYCPIAIMSALA [Peptide 703.03]   true (1)
1         ARRLKAIYARRLK [Peptide 640.04]   true (1)
2       DVFKELKVHHANENI [Peptide 519.00]   true (1)
3     KYLEFISEAIIHVLHSR [Peptide 508.01]  false (0)
4     KIAKMEKASSVFNVVNS [Peptide 526.01]   true (1)

From here, focus on the item given below.
IN: # TODO verify IC50 < 200 nM strictly for this sequence: INSWVESQTNGIIR [Peptide 608.02]
OUT: false (0)

* * *

# study.system: DRB1*1101 (DR5w11) (Homo sapiens, UniProt P01903+P01911, A100R/A169T/A87E/I96F/K41T/L162R/M171V/P40S/Q125H/Q178H/Q39Y/Q99D/R42S/S66Y/T262R/V115G/W38E)
# Construct: used as sources of human HLA class II molecules; endogenous in cells; host or cells: SWEIG (EBV-transformed homozygous B cell line)
# Sequence (P01903 26-254, other chains not shown): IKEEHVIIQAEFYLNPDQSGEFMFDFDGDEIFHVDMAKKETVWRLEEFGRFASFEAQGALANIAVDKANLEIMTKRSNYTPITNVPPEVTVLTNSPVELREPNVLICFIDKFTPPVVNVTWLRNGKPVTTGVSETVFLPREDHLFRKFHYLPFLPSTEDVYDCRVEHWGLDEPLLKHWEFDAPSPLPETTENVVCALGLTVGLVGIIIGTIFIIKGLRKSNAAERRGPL
# protocol.description: Class II peptide-binding assay, DR5w11;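 note: competition by unlabeled test peptide against iodinated probe peptide binding to affinity-purified HLA-DR, class II amount titrated beforehand, half-maximal inhibitory concentration read as approximate Kd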
# conditions: read-out: DR5w11 nM (In IC50 Format); purified HLA DR5w11
Ends that are not written are not given here.
observable: pIC50
Numbers only, as −log10 of the molar value.

Would you please look over these solved cases?
>>> print(df.to_string())
                              substance  value_measured
0  TSATQRLANSLVHSSNNFG [Peptide 735.02]            6.89
1   YARFQSQTSLKAKT-NH2 [Peptide 717.31]            7.70
2  LMAMGITDVFSSSANLSGI [Peptide 705.08]            5.60
3   YSRFQSQTTLKAKT-NH2 [Peptide 717.38]            7.78

Dear colleague, could you send me pIC50 for each of the items below? Thanks.
1. YAAYVKLTAARKFA-NH2 [Peptide 806.03]
2. YARFQSQTPLKAKT-NH2 [Peptide 717.37]
3. KSNTATSATQRLANSLVH [Peptide 735.01]
4. YARAQSQTTLKAKT-NH2 [Peptide 717.29]
5. YARFASQTTLKAKT-NH2 [Peptide 782.02]

OUT:
[8.89, 8.10, 5.88, 4.70, 7.59]

Dear colleague, could you send me pIC50 for each of the items below? Thanks.
1. YIAFLKQATAKLAT [Peptide 723.01]
2. LVHSSNNFGAILSSTNVGS [Peptide 735.04]

OUT:
7.52
5.90

IN: # pIC50 lookup, item YARFQSQTTKKAKT-NH2 [Peptide 717.20]
OUT: 6.47
